This collection of values is drawn from patent US20090018134A1.

ASSAY TARGET: mTOR (Homo sapiens)
Construct: FLAG; made in house
ASSAY NOTES: mTOR Kinase Assay (Echo)
Assay type: biochemical
So I've got a bunch of compounds here, and I need their pIC50 values.
Give bare numbers, as −log10 of the molar value.

>  <COMPOUND>
CNC(=S)Nc1ccc(-c2nc(N3CCOC[C@@H]3C)cc(C3(S(=O)(=O)c4ccccc4)CC3)n2)cc1 [Example 37ab]

>  <ASSAY TARGET>
mTOR (Homo sapiens)

>  <OBSERVED VALUE>
8.52

$$$$
>  <COMPOUND>
C[C@H]1COCCN1c1cc(C2(S(=O)(=O)c3ccc(Cl)cc3)CC2)nc(-c2ccc(NC(=O)NCCO)cc2)n1 [Example 27h]

>  <ASSAY TARGET>
mTOR (Homo sapiens)

>  <OBSERVED VALUE>
10.07

$$$$
>  <COMPOUND>
C[C@H]1COCCN1c1cc(C2(S(=O)(=O)CCCO)CC2)nc(-c2ccc(NC(=S)NC3CC3)cc2)n1 [Example 37h]

>  <ASSAY TARGET>
mTOR (Homo sapiens)

>  <OBSERVED VALUE>
7.88

$$$$
>  <COMPOUND>
C[C@H]1COCCN1c1cc(C2(S(=O)(=O)c3ccc(Cl)cc3)CC2)nc(-c2ccc(NC(=O)NC3CC3)cc2)n1

>  <ASSAY TARGET>
mTOR (Homo sapiens)

>  <OBSERVED VALUE>
8.84

$$$$
>  <COMPOUND>
C[C@H]1COCCN1c1cc(C2(S(=O)(=O)c3ccc(F)cn3)CC2)nc(-c2ccc(NC(=O)NC3CC3)cc2)n1 [Example 48a]

>  <ASSAY TARGET>
mTOR (Homo sapiens)

>  <OBSERVED VALUE>
8.99

$$$$
>  <COMPOUND>
C[C@H]1COCCN1c1cc(C2(S(=O)(=O)c3ncc[nH]3)CC2)nc(-c2ccc(NC(=O)NC3CC3)cc2)n1 [Example 40a]

>  <ASSAY TARGET>
mTOR (Homo sapiens)

>  <OBSERVED VALUE>
8.19

$$$$
>  <COMPOUND>
CNC(=O)Nc1ccc(-c2nc(N3CCOC[C@@H]3C)cc(C3(S(=O)(=O)c4ccc(Cl)cc4)CC3)n2)cc1 [Example 27e]

>  <ASSAY TARGET>
mTOR (Homo sapiens)

>  <OBSERVED VALUE>
9.14

$$$$
>  <COMPOUND>
CCNC(=O)Nc1ccc(-c2nc(N3CCOC[C@@H]3C)cc(C3(S(=O)(=O)c4ccccc4)CC3)n2)cc1 [Example 36bg]

>  <ASSAY TARGET>
mTOR (Homo sapiens)

>  <OBSERVED VALUE>
9.04

$$$$

Continue with the next compound.
*Q* Please look up its pIC50: N#CCCNC(=O)Nc1ccc(-c2nc(N3CCOCC3)cc(C3(S(=O)(=O)c4ccc(F)cc4)CC3)n2)cc1 [Example 36am]
*A* 7.56

* * *

Would you kindly list IC50 for each of these compounds?
ASSAY TARGET: mTOR (Homo sapiens)
Construct: FLAG; made in house
ASSAY NOTES: In Vitro mTOR Kinase Assay (Echo), Test (a)(ii)
Assay type: biochemical
TEST SETTINGS: read-out: mTOR Kinase Assay (Echo)
Respond with a number, then the unit of measure.

>  <COMPOUND>
CC(C)CNC(=O)Nc1ccc(-c2nc(N3CCOC[C@@H]3C)cc(C3(S(=O)(=O)c4ccncc4)CC3)n2)cc1 [Example 6b]

>  <IC50>
6.12 nM

$$$$
>  <COMPOUND>
C[C@H]1COCCN1c1cc(C2(S(=O)(=O)C3CC3)CC2)nc(-c2ccc(NC(=O)NCCCO)cc2)n1 [Example 3l]

>  <IC50>
2.57 nM

$$$$
>  <COMPOUND>
C[C@H]1COCCN1c1cc(C2(S(=O)(=O)c3ccncc3)CC2)nc(-c2ccc(NC(=O)NCCCO)cc2)n1 [Example 6k]

>  <IC50>
1.86 nM

$$$$
>  <COMPOUND>
C[C@H]1COCCN1c1cc(C2(S(=O)(=O)C3CCCC3)CC2)nc(-c2ccc(NC(=O)NC(C)(C)CO)cc2)n1 [Example 9k]

>  <IC50>
11.5 nM

$$$$

// for each compound in input: emit IC50
1. C[C@H]1COCCN1c1cc(C2(S(C)(=O)=O)CCC2)nc(-c2ccc(NC(=O)NCc3ncc[nH]3)cc2)n1 [Example 5n]
2. CNC(=O)Nc1ccc(-c2nc(N3CCOCC3)cc(C3(S(C)(=O)=O)CC3)n2)cc1 [Example 12a]
3. CC(C)S(=O)(=O)C1(c2cc(N3CCOC[C@@H]3C)nc(-c3ccc(NC(=O)NCCO)cc3)n2)CC1 [Example 7e]

*A*
1: 8.28 nM; 2: 1.67 nM; 3: 2.12 nM

* * *

ASSAY TARGET: mTOR (Homo sapiens)
Construct: FLAG; made in house
ASSAY NOTES: In Vitro mTOR Kinase Assay (Echo), Test (a)(ii)
Type: biochemical
TEST SETTINGS: table of enzyme assay Test (a)(ii); read-out: Test (a)(ii) IC50
Exercise: state measured IC50 for each of the molecules provided.
Give bare numbers, in nM.

State the recorded IC50 for every item in the following list.
1. CC(C)(CO)NC(=O)Nc1ccc(-c2nc(N3CCOCC3)cc(C3(S(=O)(=O)C4CC4)CCC3)n2)cc1 [Example 13s]
2. C[C@H]1COCCN1c1cc(C2(S(=O)(=O)c3ccc(F)cc3F)CC2)nc(-c2ccc(NC(=O)NCCF)cc2)n1 [Example 57c]
3. NC(=O)CS(=O)(=O)C1(c2cc(N3CCOCC3)nc(-c3ccc(NC(=O)NC4CC4)cc3)n2)CC1

*A*
[8.46, 6.95, 4.56]

// each listed molecule needs a value for IC50
1. C[C@@H](CO)NC(=O)Nc1ccc(-c2nc(N3CCOC[C@@H]3C)cc(C3(S(=O)(=O)c4nccs4)CCC3)n2)cc1 [Example 98h]
2. Cc1csc(S(=O)(=O)C2(c3cc(N4CCOC[C@@H]4C)nc(-c4ccc(NC(=O)NCCCO)cc4)n3)CC2)n1 [Example 25l]
3. CC[C@H]1COCCN1c1cc(C2(S(=O)(=O)c3ccccc3)CC2)nc(-c2ccc(NC(=O)NCCF)cc2)n1 [Example 74c]
4. CCNC(=O)Nc1ccc(-c2nc(N3CCOC[C@@H]3C)cc(C3(S(=O)(=O)c4ccccc4)CC3)n2)cc1 [Example 36bg]

*A*
3.62
0.956
3.14
1.89

* * *

ASSAY TARGET: mTOR (Homo sapiens, UniProt P42345)
Construct: FLAG; made in house
Sequence (P42345 1362-2549): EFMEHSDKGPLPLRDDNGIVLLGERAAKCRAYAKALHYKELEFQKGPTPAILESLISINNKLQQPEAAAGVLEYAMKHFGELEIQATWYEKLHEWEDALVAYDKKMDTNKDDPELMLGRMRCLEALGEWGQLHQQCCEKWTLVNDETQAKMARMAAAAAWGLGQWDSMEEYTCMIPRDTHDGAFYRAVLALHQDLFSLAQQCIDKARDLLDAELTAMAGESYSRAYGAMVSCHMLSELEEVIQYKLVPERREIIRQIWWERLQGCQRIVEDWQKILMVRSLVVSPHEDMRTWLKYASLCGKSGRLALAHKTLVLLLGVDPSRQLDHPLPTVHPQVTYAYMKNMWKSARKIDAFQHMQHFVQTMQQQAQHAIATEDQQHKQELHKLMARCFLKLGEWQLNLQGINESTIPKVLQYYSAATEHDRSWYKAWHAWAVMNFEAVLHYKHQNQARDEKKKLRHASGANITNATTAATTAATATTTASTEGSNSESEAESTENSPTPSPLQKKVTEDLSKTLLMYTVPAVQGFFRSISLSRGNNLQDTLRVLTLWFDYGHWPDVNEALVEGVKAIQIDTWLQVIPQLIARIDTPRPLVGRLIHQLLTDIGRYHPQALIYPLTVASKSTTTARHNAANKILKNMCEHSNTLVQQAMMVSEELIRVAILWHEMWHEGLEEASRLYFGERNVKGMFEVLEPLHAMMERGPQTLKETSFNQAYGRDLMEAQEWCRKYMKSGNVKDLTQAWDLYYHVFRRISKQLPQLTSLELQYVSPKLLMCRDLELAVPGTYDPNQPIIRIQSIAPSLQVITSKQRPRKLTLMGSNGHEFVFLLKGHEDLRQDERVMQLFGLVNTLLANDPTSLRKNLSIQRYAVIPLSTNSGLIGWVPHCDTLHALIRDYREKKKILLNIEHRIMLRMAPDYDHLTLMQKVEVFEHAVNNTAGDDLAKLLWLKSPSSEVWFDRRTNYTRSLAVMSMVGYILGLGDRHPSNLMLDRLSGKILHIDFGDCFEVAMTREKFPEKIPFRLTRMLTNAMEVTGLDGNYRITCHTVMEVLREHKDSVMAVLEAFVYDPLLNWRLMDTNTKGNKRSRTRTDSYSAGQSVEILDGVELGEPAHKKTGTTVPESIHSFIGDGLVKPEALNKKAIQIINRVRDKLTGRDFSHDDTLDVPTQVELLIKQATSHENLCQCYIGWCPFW
ASSAY NOTES: In Vitro mTOR Kinase Assay (Echo), Test (a)(ii)
Type: biochemical
TEST SETTINGS: table of enzyme assay Test (a)(ii); read-out: Test (a)(ii) IC50
READOUT KIND: IC50
Don't forget the unit after the value.

>  <COMPOUND>
CNC(=O)Nc1ccc(-c2nc(N3CCOC[C@@H]3C)cc(C3(S(C)(=O)=O)CCNCC3)n2)cc1 [Example 20a]

>  <ASSAY TARGET>
mTOR (Homo sapiens, UniProt P42345)

>  <OBSERVED VALUE>
16.3 nM

$$$$
>  <COMPOUND>
C[C@H]1COCCN1c1cc(C2(S(=O)(=O)c3ccc(F)cc3)CC2)nc(-c2ccc(NC(=O)NCCO)nc2)n1 [Example 14l]

>  <ASSAY TARGET>
mTOR (Homo sapiens, UniProt P42345)

>  <OBSERVED VALUE>
13.7 nM

$$$$

Give IC50 for each listed item.
1. C[C@H]1COCCN1c1cc(C2(S(=O)(=O)c3ccncc3)CCC2)nc(-c2ccc(NC(=O)NC(C)(C)CO)cc2)n1 [Example 83c]
2. C[C@H]1COCCN1c1cc(C2(S(=O)(=O)c3cc(F)ccc3F)CC2)nc(-c2ccc(NC(=O)NCCO)cc2)n1 [Example 60b]
3. C[C@H]1COCCN1c1cc(C2(S(=O)(=O)C(C)(C)C)CC2)nc(-c2ccc(NC(=O)NC(C)(C)CO)cc2)n1 [Example 18k]

*A*
12.4 nM
8.62 nM
11.3 nM

* * *

Please go through the items and note down their IC50.
ASSAY TARGET: mTOR (Homo sapiens)
Construct: FLAG; made in house
ASSAY NOTES: In Vitro mTOR Kinase Assay (Echo), Test (a)(ii)
Type: biochemical
TEST SETTINGS: read-out: mTOR Kinase Assay (Echo)
Answers are plain numbers, in nM.

Check out these entries, answers already filled in.
>  <COMPOUND>
CC(C)S(=O)(=O)C1(c2cc(N3CCOC[C@@H]3C)nc(-c3ccc(NC(=O)NCCCO)cc3)n2)CC1

>  <UNIT LABEL>
nM

>  <IC50>
10.5

$$$$
>  <COMPOUND>
CNC(=O)Nc1ccc(-c2nc(N3CCOC[C@@H]3C)cc(C3(S(=O)(=O)C(C)C)CC3)n2)cc1

>  <UNIT LABEL>
nM

>  <IC50>
3.15

$$$$
>  <COMPOUND>
CCCNC(=O)Nc1ccc(-c2nc(N3CCOC[C@@H]3C)cc(C3(S(=O)(=O)c4ccccc4C(F)(F)F)CC3)n2)cc1 [Example 10h]

>  <UNIT LABEL>
nM

>  <IC50>
26.8

$$$$

Could you now consider this next compound?
*Q* Query: IC50; subject: C[C@H]1COCCN1c1cc(C2(S(C)(=O)=O)CC2)nc(-c2ccc(NC(=O)Nc3ccc(F)cn3)cc2)n1
*A* 8.66
